- System: Trypanosoma cruzi
- run.description: Antitrypanosomal activity against Trypanosoma cruzi Y trymastigotes infected in monkey LLC-MK2 cells after 24 hrs by Brenner counter method
- Assay type: functional, organism-based
- experimental.setup: LLC-MK2, 24 h
readout.name: log10 of EC50 (log10 of the value in µM)
Lab note - EC50 converted to log10 from values in µM.

Consider the following illustrative entries.
molecule: C=C1CC[C@@H]2C(C)(C)CCC[C@@]2(C)[C@@H]1CC/C(C)=C/C(=O)OC [METHYL COPALATE]
log10 of EC50: 2.58

molecule: C=C1CC[C@@H]2C(C)(C)CCC[C@@]2(C)[C@@H]1CC/C(C)=C/C(=O)O
log10 of EC50: 2.65

molecule: C=C1CC[C@@H]2[C@](C)(CCC[C@@]2(C)C(=O)O)[C@H]1CC[C@H](C)CC(=O)O
log10 of EC50: 3.21

molecule: C=C1CC/C=C(\C)CC[C@@H]2[C@@H]1CC2(C)C
log10 of EC50: 3.20

molecule: C=C1CC[C@@H]2C(C)(C)[C@@H](O)CC[C@@]2(C)[C@@H]1CC/C(C)=C/C(=O)O
log10 of EC50: 2.66

molecule: C=C1C[C@@]23CC[C@H]4[C@@](C)(CCC[C@@]4(C)C(=O)O)[C@@H]2CC[C@@H]1C3
log10 of EC50: 2.78

molecule: C=C1CC[C@@H]2[C@](C)(CCC[C@]2(C)C(=O)O)[C@H]1CC/C(C)=C/C(=O)O
log10 of EC50: 2.92

molecule: O=C(Cn1ccnc1[N+](=O)[O-])NCc1ccccc1
log10 of EC50: 1.54

We now examine a further molecule.
QUERY: Consider the molecule C=C1CC[C@@H]2[C@](C)(CCC[C@@]2(C)C(=O)O)[C@H]1CCc1ccoc1 and give its measured log10 of EC50.
RESULT: 2.98

---

Known Activity of a selection of compounds
- Tested on: Trypanosoma cruzi
- run.description: Antitrypanosomal activity against Trypanosoma cruzi Y epimastigotes assessed as gated cells in upper right quadrant at 400 uM after 3 hrs by propidium iodide staining-based flow cytometric analysis (reference value: 1.40%)
- Format: functional
Give the value, in units of %, as a plain number.

compound: C=C1CC[C@@H]2C(C)(C)[C@@H](O)CC[C@@]2(C)[C@@H]1CC/C(C)=C/C(=O)O
assay.target: Trypanosoma cruzi
observed.measurement: 24.29

compound: C=C1CC[C@@H]2[C@](C)(CCC[C@]2(C)C(=O)O)[C@H]1CC/C(C)=C/C(=O)O [AGATHIC ACID]
assay.target: Trypanosoma cruzi
observed.measurement: 32.97

compound: C=C1C[C@@]23CC[C@H]4[C@@](C)(CCC[C@@]4(C)C(=O)O)[C@@H]2CC[C@@H]1C3 [KAURENOIC ACID]
assay.target: Trypanosoma cruzi
observed.measurement: 18.53

QUERY: Consider the compound C=C1CC[C@@H]2C(C)(C)CCC[C@@]2(C)[C@@H]1CC/C(C)=C/C(=O)OC [METHYL COPALATE] and give its measured Activity.
RESULT: 2.25

---

- Tested on: Trypanosoma cruzi
- run.description: Antitrypanosomal activity against Trypanosoma cruzi Y epimastigotes assessed as gated cells in upper left quadrant at 400 uM after 3 hrs by propidium iodide staining-based flow cytometric analysis (reference value: 3.76%)
- Assay type: functional
Known Activity of a selection of compounds
Express your answer as a number followed by its unit.

Consider the following illustrative entries.
compound: C=C1CC[C@@H]2C(C)(C)CCC[C@@]2(C)[C@@H]1CC/C(C)=C/C(=O)OC [METHYL COPALATE]
Activity: 2.62%
//
compound: C=C1CC[C@@H]2[C@](C)(CCC[C@@]2(C)C(=O)O)[C@H]1CC[C@H](C)CC(=O)O [PINIFOLIC ACID]
Activity: 3.78%
//
compound: C=C1CC[C@@H]2[C@](C)(CCC[C@@]2(C)C(=O)O)[C@H]1CCc1ccoc1 [POLYALTIC ACID]
Activity: 16.7%
//
compound: C=C1CC[C@@H]2[C@](C)(CCC[C@]2(C)C(=O)O)[C@H]1CC/C(C)=C/C(=O)O [AGATHIC ACID]
Activity: 50.32%
//
compound: C=C1CC/C=C(\C)CC[C@@H]2[C@@H]1CC2(C)C [BETA-CARYOPHYLLENE]
Activity: 78.81%

QUERY: Consider the compound C=C1C[C@@]23CC[C@H]4[C@@](C)(CCC[C@@]4(C)C(=O)O)[C@@H]2CC[C@@H]1C3 [KAURENOIC ACID] and give its measured Activity.
RESULT: 45.55%

QUERY: Consider the compound C=C1CC[C@@H]2C(C)(C)CCC[C@@]2(C)[C@@H]1CC/C(C)=C/C(=O)O [COPALIC ACID] and give its measured Activity.
RESULT: 43.58%

QUERY: Consider the compound C=C1CC[C@@H]2C(C)(C)[C@@H](O)CC[C@@]2(C)[C@@H]1CC/C(C)=C/C(=O)O and give its measured Activity.
RESULT: 73%
